Test: chemical genetic growth profiling, strain panel (AID 1159580);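 note: tested at 20 µM; growth read once vehicle control cultures reached saturation at 30 °C; 1 = growth at the plate median or of vehicle wells; lower values mean less growth of the strain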
Conditions: S. cerevisiae deletion strains, growth OD, locus YLR342W, strain FKS1 (second series), hits give low values
Among all 5,500 compounds or so, about 2,000 (36%) were called active. Another 18% or so got no clear call; they are omitted. The list shows a part of the results.
The molecules listed here are annotated with their normalized growth.
Reply: number alone, nothing else.

O=C(O)CCCOc1ccc(Cl)cc1Cl
0.997
CN(C)CCC(c1ccc(Br)cc1)c1ccccn1 (stereo unspecified)
0.985
NCC(CC(=O)O)c1ccc(Cl)cc1 (stereo unspecified)
1.03
CSc1ccc2c(c1)N(CCC1CCCCN1C)c1ccccc1S2 (stereo unspecified)
0.07
COc1cc2c(cc1-c1cc3cc4ccoc4cc3oc1=O)OCO2
0.993
CC1=C2[C@H]3OC(=O)[C@@H](C)[C@@H]3CC[C@@]2(C)C=CC1=O
1.01
C[C@@H]1CC2C3C[C@H](F)C4=CC(=O)C=C[C@]4(C)[C@@]3(F)[C@@H](O)C[C@]2(C)[C@@]1(O)C(=O)COC(=O)C(C)(C)C (stereo partly specified)
1.03
COc1c2ccoc2nc2c(OC)c(OCC(O)C(C)(C)O)ccc12 (stereo unspecified)
0.992

Look up normalized growth: CC1CC2C3CC(F)C4=CC(=O)C=CC4(C)C3(F)C(O)CC2(C)C1C(=O)COC(=O)C(C)(C)C (stereo unspecified)
0.758

Look up normalized growth: `CCCCC[C@H](CC(=O)NO)C(=O)N[C@H](C(=O)N1CCC[C@H]1CO)C(C)C`
0.961

Look up normalized growth: `CNC(=O)Oc1ccc2c(c1)[C@]1(C)CCN(C)[C@@H]1N2C`
1.03

---

Assay: chemical genetic growth profiling, strain panel (AID 1159580)
Conditions: S. cerevisiae deletion strains, growth OD, locus YKL160W, strain elf1, hits give low values
Out of some 5,500 compounds screened, about 2,000 (36%) were called active. Not shown: some 18% with an inconclusive outcome. Some of the results follow.
assay.metric: normalized growth
Reply: number alone, nothing else.

CC(CCC(=O)O)[C@H]1CCC2C3C[C@H](O)[C@@H]4C[C@H](O)CC[C@]4(C)C3CC[C@@]21C (stereo partly specified)
0.948

Look up normalized growth: C[C@@H]1CC2C3C[C@H](F)C4=CC(=O)C=C[C@]4(C)[C@@]3(F)[C@@H](O)C[C@]2(C)[C@@]1(O)C(=O)COC(=O)C(C)(C)C (stereo partly specified)
0.978

Look up normalized growth: `COc1cc([C@@H]2c3cc4c(cc3[C@H](OC(C)=O)[C@H]3COC(=O)[C@@H]23)OCO4)cc(OC)c1OC`
1.01

Look up normalized growth: `O=[N+]([O-])c1cccc2cn[nH]c12`
0.958

Look up normalized growth: COc1c2ccoc2nc2c(OC)c(OCC(O)C(C)(C)O)ccc12 (stereo unspecified)
1.03

Look up normalized growth: `COc1c2ccccc2nc2occc12`
0.917

---

Assay: chemical genetic growth profiling, strain panel (AID 1159580)
Settings: S. cerevisiae deletion strains, growth OD, locus YMR307W, strain GAS1
The campaign covered roughly 5,500 compounds. About 2,000 (36%) were called active. Not shown: some 18% with an inconclusive outcome. Rule as the data show it: active = normalized growth mostly below about 0.91 (no sharp cut-off); inconclusive = no clear call, values can overlap the other calls; inactive = mostly above about 0.92. This is one part of the list.
Returns: one label drawn from label 1 (active), label 0 (inactive)

Answered cases to consult:
CCCCN1CCC(COC(=O)c2cc(Cl)c(N)c3c2OCCO3)CC1
label 0
CCN(CC)C(C)CN1c2ccccc2Sc2ccccc21 (stereo not given)
label 0

Fill in: this test's call for Nc1ccn(C2O[C@H](CO)[C@@H](O)[C@H]2O)c(=O)n1 (stereo not given in full) is ___
label 0

Fill in: this test's call for `CN(C)CCOC(=O)COc1ccc(Cl)cc1` is ___
label 0

Fill in: this test's call for `CC(=O)N=c1sc(S(N)(=O)=O)nn1C` is ___
label 0

Fill in: this test's call for `CCOC(=O)[C@H](CCc1ccccc1)N[C@@H](C)C(=O)N1Cc2ccccc2C[C@H]1C(=O)O` is ___
label 0

Fill in: this test's call for NCC(CC(=O)O)c1ccc(Cl)cc1 (stereo not given) is ___
label 0

---

Assay: chemical genetic growth profiling, strain panel (AID 1159580)
Settings: S. cerevisiae deletion strains, growth OD, locus YPR167C, strain met16
About 2,000 (36%) of roughly 5,500 compounds were called active. Not shown: some 18% with an inconclusive outcome. Cut-off read from the data, not from the text of the source: active = normalized growth mostly below about 0.91 (no sharp cut-off); inconclusive = no clear call, values can overlap the other calls; inactive = mostly above about 0.92. The list shows a part of the results.
Returns: one label drawn from active, inactive

Answered cases to consult:
CN(C(=O)CN(CCO)CC(=O)N(C)C(C)(C)Cc1ccccc1)C(C)(C)Cc1ccccc1
inactive
CCC(=O)Nc1ccc(Cl)c(Cl)c1
inactive
O=c1cc(-c2ccccc2)oc2cc(O)c(O)c(O)c12
active

Next up:
Fill in: this test's call for CN[C@@H]1[C@H](OC2[C@H](O[C@H]3[C@H](O)[C@@H](O)[C@H](N=C(N)N)[C@@H](O)[C@@H]3N=C(N)N)O[C@@H](C)[C@]2(O)C=O)O[C@@H](CO)[C@H](O)[C@H]1O (some centres undefined) is ___
inactive

---

Assay: chemical genetic growth profiling, strain panel (AID 1159580);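 note: tested at 20 µM; growth read once vehicle control cultures reached saturation at 30 °C; 1 = growth at the plate median or of vehicle wells; lower values mean less growth of the strain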
Conditions: S. cerevisiae deletion strains, growth OD, locus YJR075W, strain HOC1, hits give low values
The campaign covered roughly 5,500 compounds. About 2,000 (36%) were called active. Roughly 18% stayed inconclusive and do not appear here. The list shows a part of the results.
# note: exactly 1 is not below, so it is rule not met; use rule met for normalized growth strictly under it

CCN(CC)C(C)CN1c2ccccc2Sc2ccccc21 (stereo not given)
rule met

Next up:
Take the compound `O=c1c2cc(NS(=O)(=O)c3ccc(Cl)cc3)ccc2oc2ncccc12` and say whether its normalized growth is less than 1.
rule not met

---

Assay: chemical genetic growth profiling, strain panel (AID 1159580);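 note: tested at 20 µM; growth read once vehicle control cultures reached saturation at 30 °C; 1 = growth at the plate median or of vehicle wells; lower values mean less growth of the strain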
Conditions: S. cerevisiae deletion strains, growth OD, locus YEL061C, strain CIN8 (second series), hits give low values
Out of some 5,500 compounds screened, about 2,000 (36%) were called active. Inconclusive results (about 18%) are left out. The list shows a part of the results.
assay.metric: normalized growth
Reply: number alone, nothing else.

Consider the worked cases shown below.
CC(CCC(=O)O)[C@H]1CCC2C3C(C[C@H](O)[C@@]21C)[C@@]1(C)CC[C@@H](O)C[C@H]1C[C@H]3O (stereo partly specified)
1.02
COc1cc(OC)c(OC)cc1C=O
1
COC(=O)CCC(C)[C@H]1CCC2C3C(C[C@H](O)[C@@]21C)[C@@]1(C)CC[C@@H](O)C[C@H]1C[C@H]3O (stereo partly specified)
1.01
O=c1cc(-c2cc(O)c(O)c(O)c2)oc2cc(O)cc(O)c12
1
C[C@H](CCC(=O)O)[C@H]1CCC2C3C(CC[C@@]21C)[C@@]1(C)CC[C@@H](O)C[C@H]1C[C@@H]3O (stereo partly specified)
0.983

Look up normalized growth: `CN(C)C(=O)Nc1ccc(Cl)c(Cl)c1`
1.01

Look up normalized growth: `NNCCc1ccccc1`
1.01

Look up normalized growth: CC(C)CCCC(C)C1CCC2C3CC[C@H]4CCCC[C@]4(C)C3CC[C@]12C (stereo partly specified)
1.01

Look up normalized growth: `CCCC(CCC)C(=O)O`
1.01

Look up normalized growth: `Nc1ccncc1`
0.994

Look up normalized growth: CC(=O)O[C@H]1C[C@@H](OC(C)=O)C(C)(C)C2CC(=O)[C@]3(C)C(CC[C@@]4(C)[C@H](c5ccoc5)OC(=O)[C@H]5O[C@]543)[C@]21C (stereo partly specified)
0.994

---

Test: chemical genetic growth profiling, strain panel (AID 1159580);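 note: tested at 20 µM; growth read once vehicle control cultures reached saturation at 30 °C; 1 = growth at the plate median or of vehicle wells; lower values mean less growth of the strain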
Details: S. cerevisiae deletion strains, growth OD, locus YER002W, strain NOP16, hits give low values
Hit rate of the full screen: of about 5,500 compounds, about 2,000 (36%) were called active. Not shown: some 18% with an inconclusive outcome. The list shows a part of the results.
The compounds listed here are annotated with their normalized growth.

Consider the worked cases shown below.
N[C@@H](Cc1ccc(F)cc1)C(=O)O
0.99 (inactive)
CS(=N)(=O)CC[C@H](N)C(=O)O (stereo not given in full)
1 (inactive)
NC(N)=NC(=O)Cc1c(Cl)cccc1Cl
1.04 (inactive)
CC(=O)OCC1=C(C(=O)O)N2C(=O)C(NC(=O)Cc3cccs3)C2SC1 (stereo not given)
1.03 (inactive)
O=C1Nc2ccc(I)cc2/C1=C/c1cc(Br)c(O)c(Br)c1
1.01 (inactive)
N#Cc1cc2nc(O)c(O)nc2cc1[N+](=O)[O-]
1.01 (inactive)
CC(CN1c2ccccc2Sc2ccccc21)N(C)C (stereo not given)
0.978 (inactive)
CN(C)CCOC(=O)COc1ccc(Cl)cc1
0.971 (inactive)
NC(=NCCCC(N)C(=O)O)N[N+](=O)[O-] (stereo not given)
1 (inactive)
Cc1nc2n(c(=O)c1CCN1CCC(c3noc4cc(F)ccc34)CC1)CCCC2
1 (inactive)

Switching to the query record.
Look up normalized growth: `Clc1ccc2c(c1)C(N1CCNCC1)=Nc1ccccc1O2`
0.998 (inactive)
